- Test system: Hum24 quadruplex
- ASSAY NAME: Temperature-dependent CD analysis
- Assay type: binding, human
VALUE KIND: melting temperature of Hum24 quadruplex in the presence of compound

- COMPOUND: "C[n+]1ccnc(C=Cc2ccc3[nH]c4ccc(C=Cc5c[n+](C)ccn5)cc4c3c2)c1.[I-].[I-] [Compound 6]"
  VALUE REPORTED: "increased"
- COMPOUND: "C[n+]1ccc(C=Nc2ccc3[nH]c4ccc(N=Cc5cc[n+](C)cc5)cc4c3c2)cc1.[I-].[I-] [Compound 8]"
  VALUE REPORTED: "increased"
- COMPOUND: "C[n+]1ccccc1C=Cc1ccc2[nH]c3ccc(C=Cc4cccc[n+]4C)cc3c2c1.[I-].[I-] [Compound 4]"
  VALUE REPORTED: "increased"
- COMPOUND: "C[n+]1ccc(C=Cc2ccc3[nH]c4ccc(C=Cc5cc[n+](C)cc5)cc4c3c2)cc1.[I-].[I-] [Compound 2]"
  VALUE REPORTED: "increased"

Data provenance is patent US7691624B2.
